Tested on: Wnt pathway (Sp5-Luc reporter, TCF/LEF binding sites) in SW480 colon carcinoma cells
Assay: Screening assay for Wnt activity: Sp5-Luc reporter gene assay
Assay type: cell-based, human
Conditions: Homo sapiens; Sp5-Luc reporter, SW480 cells, 36 to 48 hours
Mark each entry fulfilled if its EC50 sits below 1 µM, and not fulfilled for all others.

Lookup: Just wondering, is EC50 of `Cn1cc(-c2ccc3cnc(NC(=O)[C@@H]4CCCCN4)cc3c2)cn1` below 1 µM?
Found: fulfilled

Lookup: Just wondering, is EC50 of `Cn1cncc1-c1ccc2cnc(NC(=O)C(C)(C)F)cc2c1` below 1 µM?
Found: not fulfilled

Attention now shifts to the item below.
Lookup: Just wondering, is EC50 of `O=C(Nc1cc2cc(-c3cnn4c3CN(CCF)CC4)ccc2cn1)C1CCNCC1` below 1 µM?
Found: not fulfilled

====

Tested on: Wnt pathway (Sp5-Luc reporter, TCF/LEF binding sites) in SW480 colon carcinoma cells
Assay: Screening assay for Wnt activity: Sp5-Luc reporter gene assay;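 note: firefly luciferase luminescence read in stably transduced SW480 cells carrying the Sp5 promoter reporter with eight TCF/LEF sites, compounds given in 0.1% DMSO final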
Format: cell-based, human
Settings: Homo sapiens; Sp5-Luc reporter, SW480 cells, 36 to 48 hours
property: pEC50
pEC50 here: minus log base 10 of the concentration, concentration in moles per litre.

Worked cases, pEC50 given:
Query Cn1cc(-c2ccc3cnc(NC(=O)C4CC4)cc3c2)cn1 [Compound 1] yields pEC50 of 6.19

Query CC(C)CN1CCC(C(=O)Nc2cc3cc(-c4nnnn4C)ccc3cn2)CC1 [Compound 1092] yields pEC50 of 6.61

Query Cn1ncc(-c2ccc3cnc(NC(=O)C(C)(C)F)cc3c2)c1CN1CCCCC1 [Compound 784] yields pEC50 of 5.23

Query CO[C@H]1CC[C@H](C(=O)Nc2cc3cc(-c4cnn(C)c4CN4CCCCC4)ccc3cn2)CC1 [Compound 795] yields pEC50 of 6.33

Query Cn1cc(-c2ccc3cnc(NC(=O)[C@H]4CC[C@H](N(C)C)CC4)cc3c2)cn1 [Compound 327] yields pEC50 of 6.59

Query O=C(Nc1cc2cc(-c3cnc4n3CCNC4)ccc2cn1)C1CC1 [Compound 265] yields pEC50 of 5.91

Query [2H]C([2H])([2H])n1cc(-c2cc3cc(NC(=O)CN4CCCCC4)ncc3cc2F)cn1 [Compound 1015] yields pEC50 of 5.43

Query Cn1cncc1-c1ccc2cnc(NC(=O)[C@H]3CC[C@H](CO)CC3)cc2c1 [Compound 531] yields pEC50 of 5.97

Query COCCN1CCC(C(=O)Nc2cc3cc(-c4cncn4C)ccc3cn2)CC1 [Compound 547] yields pEC50 of 5.65

Query Cn1cc(-c2ccc3cnc(NC(=O)C4CCN(CCF)CC4)cc3c2)cn1 [Compound 81] yields pEC50 of 6.13

Further cases:
Query CC(C)CN1CCCC(C(=O)Nc2cc3cc(-c4cnn(C)c4)ccc3cn2)CC1 (centres unmarked) [Compound 1079] yields pEC50 of 5.84

Query Cc1nnc(-c2ccc3cnc(NC(=O)CN4CCCC4)cc3c2)s1 [Compound 932] yields pEC50 of 6.02

Query CC(C)CN1CCC(C(=O)Nc2cc3cc(-c4cnn(C)c4)cc(F)c3cn2)CC1 [Compound 367] yields pEC50 of 6.28

Query Cc1nnc(-c2cc(F)c3cnc(NC(=O)CN4CCOCC4)cc3c2)s1 [Compound 963] yields pEC50 of 5.92

Query Cn1ncc(-c2ccc3cnc(NC(=O)C4CCN(C5COC5)CC4)cc3c2)c1CN1CCCCC1 [Compound 826] yields pEC50 of 6.22

====

Molecular target: recombinant GSK3β kinase (Homo sapiens (Human))
Sequence (P49841 whole entry): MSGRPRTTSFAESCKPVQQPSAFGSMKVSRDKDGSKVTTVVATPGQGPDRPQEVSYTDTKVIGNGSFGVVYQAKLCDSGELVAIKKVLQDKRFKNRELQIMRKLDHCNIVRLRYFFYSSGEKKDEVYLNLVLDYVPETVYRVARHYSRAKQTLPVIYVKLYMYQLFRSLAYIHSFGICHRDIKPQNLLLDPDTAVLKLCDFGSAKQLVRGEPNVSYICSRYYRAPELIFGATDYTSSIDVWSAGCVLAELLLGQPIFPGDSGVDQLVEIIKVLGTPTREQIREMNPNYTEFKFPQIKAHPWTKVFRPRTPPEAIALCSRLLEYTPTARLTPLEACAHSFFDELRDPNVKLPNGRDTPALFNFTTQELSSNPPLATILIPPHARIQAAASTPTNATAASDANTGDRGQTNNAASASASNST
Experiment: GSK3β kinase assay (Ser/Thr 09 peptide Z-lyte FRET)
Conditions: 46 μM ATP, 1 h room temperature
Overview of reported EC50 across a group of compounds:
Express it in nM; write the number only.

For [2H]C([2H])([2H])n1cc(-c2cc(F)c3cnc(NC(=O)CN4CCCCC4)cc3c2)cn1 [Compound 1016] on recombinant GSK3β kinase (Homo sapiens (Human)), measured EC50 was 87

For CC(C)CN1CCC(C(=O)Nc2cc3cc(-c4nnnn4C)ccc3cn2)CC1 [Compound 1092] on recombinant GSK3β kinase (Homo sapiens (Human)), measured EC50 was 132

For CCN1CCC(C(=O)Nc2cc3cc(-c4cnn(C)c4)c(F)cc3cn2)CC1 [Compound 967] on recombinant GSK3β kinase (Homo sapiens (Human)), measured EC50 was 46

Further cases:
For CC(C(=O)Nc1cc2cc(-c3cncn3C)ccc2cn1)N1CCCC1 (stereo not shown) [Compound 579] on recombinant GSK3β kinase (Homo sapiens (Human)), measured EC50 was 48

====

Target: recombinant GSK3β kinase (Homo sapiens (Human))
Test: GSK3β kinase assay (Ser/Thr 09 peptide Z-lyte FRET);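 note: kinase activity read as coumarin to fluorescein emission ratio, 11-point threefold dilutions from 10 µM to 0.0003 µM in duplicate, unphosphorylated and phosphorylated peptide as 0% and 100% controls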
Conditions: 46 μM ATP, 1 h room temperature
Mark each entry y if its EC50 sits below 80 nM, and n for all others.

Would you please look over these solved cases?
Lookup: Just wondering, is EC50 of `Cn1ncc(-c2ccc3cnc(NC(=O)C4CCC(F)(F)CC4)cc3c2)c1CN1CCC1` below 80 nM?
Found: n

Lookup: Just wondering, is EC50 of `Cn1cc(-c2ccc3cnc(NC(=O)[C@H]4C[C@H](N5CCOCC5)C4)cc3c2)cn1` below 80 nM?
Found: y

Lookup: Just wondering, is EC50 of `CN1CCN(CC(=O)Nc2cc3cc(-c4cn(C)nn4)ccc3cn2)CC1` below 80 nM?
Found: y

Further cases:
Lookup: Just wondering, is EC50 of `Cn1cc(-c2ccc3cnc(NC(=O)C4CCN(C(=O)CN5CCCC5)CC4)cc3c2)cn1` below 80 nM?
Found: n

Lookup: Just wondering, is EC50 of `CC#CC(=O)Nc1cc2cc(-c3cnn(C)c3)ccc2cn1` below 80 nM?
Found: n

====

Target: recombinant DYRK1A kinase (Homo sapiens (Human), UniProt Q13627)
Test: DYRK1A kinase assay (Ser/Thr 18 peptide Z-lyte FRET)
Conditions: 30 μM ATP, 1 h room temperature
property: pEC50
pEC50 here: minus log base 10 of the concentration, concentration in moles per litre.

Worked cases, pEC50 given:
For `CN1CCC(C(=O)Nc2cc3cc(-c4cncs4)ccc3cn2)CC1` on recombinant DYRK1A kinase (Homo sapiens (Human), UniProt Q13627), measured pEC50 was 8.89

For `Cc1ncc(-c2ccc3cnc(NC(=O)[C@@H]4CCCO4)cc3c2)n1C` on recombinant DYRK1A kinase (Homo sapiens (Human), UniProt Q13627), measured pEC50 was 7.54

For `Cn1cc(-c2ccc3cnc(NC(=O)[C@H]4CC[C@H](N(C)C)CC4)cc3c2)nn1` on recombinant DYRK1A kinase (Homo sapiens (Human), UniProt Q13627), measured pEC50 was 8.66

Further cases:
For `Cn1cc(-c2ccc3cnc(NC(=O)C4CCN(Cc5ccccn5)CC4)cc3c2)cn1` on recombinant DYRK1A kinase (Homo sapiens (Human), UniProt Q13627), measured pEC50 was 8.52

For `Cn1cc(-c2ccc3cnc(NC(=O)CN4CCCC4)cc3c2)cn1` on recombinant DYRK1A kinase (Homo sapiens (Human), UniProt Q13627), measured pEC50 was 8.15

For `Cn1ncc(-c2ccc3cnc(NC(=O)C4CCOCC4)cc3c2)c1CN1CCCCC1` on recombinant DYRK1A kinase (Homo sapiens (Human), UniProt Q13627), measured pEC50 was 8.42

For `CN1CCC(C(=O)Nc2cc3cc(-c4ccn(C)n4)ccc3cn2)CC1` on recombinant DYRK1A kinase (Homo sapiens (Human), UniProt Q13627), measured pEC50 was 6.46

For `Cn1cc(-c2ccc3cnc(NC(=O)C4CCN(CC(C)(C)C)CC4)cc3c2)cn1` on recombinant DYRK1A kinase (Homo sapiens (Human), UniProt Q13627), measured pEC50 was 8.33

For `O=C(Nc1cc2cc(-c3cncs3)ccc2cn1)C1CNC1` on recombinant DYRK1A kinase (Homo sapiens (Human), UniProt Q13627), measured pEC50 was 8.51

====

Target: recombinant DYRK1A kinase (Homo sapiens (Human), UniProt Q13627)
Test: DYRK1A kinase assay (Ser/Thr 18 peptide Z-lyte FRET);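 note: Read-out is the coumarin to fluorescein emission ratio, referenced to unphosphorylated (0%) and phosphorylated (100%) Ser/Thr 18 peptide controls, values from dose-response curves by non-linear regression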
Conditions: 30 μM ATP, 1 h room temperature
property: EC50 (nM)
Express it in nM; write the number only.

Worked cases, EC50 given:
For `CN(CC(=O)Nc1cc2cc(-c3cnco3)ccc2cn1)C1CCC1` on recombinant DYRK1A kinase (Homo sapiens (Human), UniProt Q13627), measured EC50 was 19.1

For `Cc1nc(CN2CCC(C(=O)Nc3cc4cc(-c5cnn(C)c5)ccc4cn3)CC2)no1` on recombinant DYRK1A kinase (Homo sapiens (Human), UniProt Q13627), measured EC50 was 1.5

For `Cc1ncc(-c2ccc3cnc(NC(=O)CN4CCCC4)cc3c2)s1` on recombinant DYRK1A kinase (Homo sapiens (Human), UniProt Q13627), measured EC50 was 14.7

Please examine the following record next.
For `Cn1cc(-c2ccc3cnc(NC(=O)[C@H]4CC[C@H](N5CCOCC5)CC4)cc3c2)cn1` on recombinant DYRK1A kinase (Homo sapiens (Human), UniProt Q13627), measured EC50 was 1.3
